For each entry below, report its pKi value.
Target: FKBP51 (Homo sapiens, UniProt Q13451)
Sequence (Q13451 whole entry): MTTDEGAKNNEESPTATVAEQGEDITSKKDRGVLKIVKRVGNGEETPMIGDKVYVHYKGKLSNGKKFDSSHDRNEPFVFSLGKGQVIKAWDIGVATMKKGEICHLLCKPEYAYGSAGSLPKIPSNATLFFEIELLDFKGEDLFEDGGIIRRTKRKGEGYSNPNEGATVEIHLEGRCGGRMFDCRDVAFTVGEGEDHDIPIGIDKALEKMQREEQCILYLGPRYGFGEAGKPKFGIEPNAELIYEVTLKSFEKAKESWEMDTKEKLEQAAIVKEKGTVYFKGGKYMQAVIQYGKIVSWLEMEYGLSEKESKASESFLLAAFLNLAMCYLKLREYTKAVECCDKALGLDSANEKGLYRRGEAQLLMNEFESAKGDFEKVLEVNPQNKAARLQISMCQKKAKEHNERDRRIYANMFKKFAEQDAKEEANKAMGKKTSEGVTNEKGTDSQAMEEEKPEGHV
Assay: FP assay, binding to human FKBPs (Table 1)
Settings: fluorescence polarization assay
Answers are plain numbers, as −log10 of the molar value.

Some solved entries appear below for comparison.
C=C[C@H]1CN(CCO)C(=O)[C@@H]2CCC[C@H]1N2S(=O)(=O)c1cc(Cl)cc(Cl)c1 [20a] = 6.39
C=C[C@H]1CN(Cc2ccccn2)C(=O)[C@@H]2CCC[C@H]1N2S(=O)(=O)c1cc(Cl)cc(Cl)c1 [6a] = 6.92
C=C[C@H]1CN([C@H](C)C(=O)O)C(=O)[C@@H]2CCC[C@H]1N2S(=O)(=O)c1cc(Cl)cc(Cl)c1 [21c] = 6.91
O=C1[C@@H]2CCC[C@H]([C@@H](CO)CN1Cc1ccccn1)N2S(=O)(=O)c1cc(Cl)cc(Cl)c1 [23a] = 7.48
C=C[C@H]1CN([C@@H](C)c2ccccn2)C(=O)[C@@H]2CCC[C@H]1N2S(=O)(=O)c1ccc2ncsc2c1 [7d] = 7.48

Consider the compound C=C[C@H]1CN([C@@H](C)CO)C(=O)[C@@H]2CCC[C@H]1N2S(=O)(=O)c1cc(Cl)cc(Cl)c1 [20b] . State its measured pKi.
6.97

src = patent US20230126391A1
